test system: NCI/ADR-RES ovarian; test: NCI tumour cell line growth inhibition, 48 h
Observed property: TGI

Molecule	Observed property	Test result
COc1ccc(NC(=S)N/N=C(\C)c2nc3ncccc3[nH]2)cc1	TGI	> 100 µM
COc1cc(-c2nn(-c3cccc(NC(=O)c4ccc(N5CCOCC5)c(C(F)(F)F)c4)c3)cc2-c2ccncc2)ccc1Cl	TGI	> 100 µM
OCC1OC(n2cnc3c(Cl)nc(Cl)cc32)C(O)C1O (stereo not drawn)	TGI	> 100 µM
CC(O)C1(CNc2cc(Cl)nc(N)n2)CC(CCc2ccccc2)C1 (stereo not drawn)	TGI	21.8 µM
CC(C)(C)OC(=O)NC1CCC(C(C)(C)C)CC1 (stereo not drawn)	TGI	> 100 µM
NCCC(=O)N[C@@H](Cc1cc(O)c(O)c(SCC(NC(=O)CC[C@H](N)C(=O)O)C(=O)NCC(=O)O)c1)C(=O)O (stereo partly drawn)	TGI	> 50 µM
O=c1[nH]c(-n2[nH]c3c(c2=O)CCCC3)nc(O)c1-c1ccccc1	TGI	> 100 µM
COC(=O)C1C2CC3C1C3C2C(=O)OC (stereo not drawn)	TGI	> 100 µM
COC(=O)/C=C(/OC)[C@H](C)[C@H](/C=C/c1csc(-c2csc(C(C)C)n2)n1)OC	TGI	> 100 µM
Cc1cc(O)cc(C)c1/C=C/c1cncc(-c2nn[nH]n2)c1	TGI	> 25 µM
O=C(NCc1ccncc1)C12CC3CC(C1)CC(c1ccc(Cl)cc1)(C3)C2	TGI	87.8 µM
COc1ccc(-c2nc(N3CCN(C(=O)C4CCCCC4)CC3)c3c4c(sc3n2)CCCC4)cc1	TGI	> 100 µM
CCOP(=O)(OCC)[C@H]1OC(C)(C)O[C@@H]1CO	TGI	> 100 µM
COc1ccc(-c2cc(-c3ccc(O)cc3)nc3n[nH]c(N)c23)cc1	TGI	51.9 µM
COc1cc(Nc2nc3ccc(C(F)(F)F)cc3nc2C(=O)O)cc(OC)c1OC	TGI	45.5 µM
c1ccc(C(=NNc2cnc3ccccc3n2)c2ccccn2)cc1	TGI	2.15 µM
O=C(O)[C@@H]1NC[C@H]2C(Br)=NO[C@H]21	TGI	> 100 µM
O=C(/C(=C/c1ccc([N+](=O)[O-])cc1)SCc1ccc(F)cc1)c1ccc(Cl)cc1	TGI	> 100 µM
O=C(Nc1ccc(Cl)c(Cl)c1)N1N=C2c3ccccc3CCC2C1c1ccc(Cl)cc1 (stereo not drawn)	TGI	> 100 µM
CCOC(=O)[C@@H](C)C[C@H](Cc1ccccc1)NC(=O)c1csc([C@@H](C[C@H](C(C)C)N(C)C(=O)[C@H](CC)NC(=O)[C@H]2CCCCN2C)OC(C)=O)n1	TGI	> 15.7 µM
O=C1OC2CC=CC1C2 (stereo not drawn)	TGI	> 100 µM
C/C(=N\NC(=S)N(C)CCN(C)C(=S)N/N=C(\C)c1ccccn1)c1ccccn1	TGI	2.02 µM
O=S(=O)(c1ccccc1)C1(CCC2OCCO2)C=CC2(CC1)OCCO2 (stereo not drawn)	TGI	> 100 µM
C[C@H]1[C@H]2[C@H]3CC[C@@H]4[C@@]5(C)C/C(=C/c6cccnc6)C(=O)C(C)(C)[C@@H]5CC[C@@]4(C)[C@]3(C)CC[C@]23CO[C@]1(C)[C@@H](C(=O)/C=C\c1cccnc1)C3	TGI	> 50 µM
CN(C)CCCNC(=O)c1cncnc1Nc1ccc(OCc2cccc(F)c2)c(Cl)c1	TGI	3.77 µM
COC(=O)[C@H](Cc1ccc(O)cc1)NC(=O)[C@@H](OC)[C@@H]1Cc2cc3cc(OC4CC(OC5CC(O)C(O)C(C)O5)C(O)C(C)O4)c(C)c(O)c3c(O)c2C(=O)[C@H]1OC1CC(OC2CC(OC3CC(C)(O)C(O)C(C)O3)C(O)C(C)O2)C(O)C(C)O1 (stereo partly drawn)	TGI	> 25 µM
C=CCNS(=O)(=O)c1ncnc2nc[nH]c12	TGI	> 100 µM
COc1cnc2c(c1)C(=O)c1c-2n(CCCNC(C)C)c(=O)c2cc(F)ccc12	TGI	1.81 µM
